Each entry below carries its reported log10 of O2 permeability.
For clarity, the numbers are log10 values of O2 permeability expressed in Barrer.

Input line: What log10 of O2 permeability value was documented for this compound, *C(=C(*)c1cccc(O[Si](C)(C)C(C)(C)C)c1)c1ccc(C(C)(C)C)cc1 (repeat unit) ?
Output line: 3.32

Input line: Now give it for *[Si](C)(C)c1cccc([Si](*)(C)C)c1 (repeat unit) too.
Output line: 1.88

Input line: Now give it for *OC(=O)Oc1ccc(C2(c3ccc(*)cc3)CCCCC2)cc1 (repeat unit) too.
Output line: -0.22

Input line: Now give it for *Oc1ccc2c(c1)C1(CC2(C)C)CC(C)(C)c2ccc(OC(=O)c3cccc(C(*)=O)c3)cc21 (repeat unit) too.
Output line: 0.73

Input line: Now give it for *Oc1ccc(C2(c3ccc(OC(=O)c4cc(C(*)=O)cc(C(C)(C)C)c4)cc3)OC(=O)c3ccccc32)cc1 (repeat unit) too.
Output line: 0.75

Input line: Now give it for *c1ccc(C(c2ccc(N3C(=O)c4ccc(C(c5ccc6c(c5)C(=O)N(*)C6=O)(C(F)(F)F)C(F)(F)F)cc4C3=O)cc2)(C(F)(F)F)C(F)(F)F)cc1 (repeat unit) too.
Output line: 1.21
